These entries and their values trace back to patent US7109193B2.

# targetUnderTest: human vasopressin V2 receptor subtype (Homo sapiens, UniProt P30518)
# Construct: host or cells: CHO cells (pZeoSV vector)
# Sequence (P30518 whole entry): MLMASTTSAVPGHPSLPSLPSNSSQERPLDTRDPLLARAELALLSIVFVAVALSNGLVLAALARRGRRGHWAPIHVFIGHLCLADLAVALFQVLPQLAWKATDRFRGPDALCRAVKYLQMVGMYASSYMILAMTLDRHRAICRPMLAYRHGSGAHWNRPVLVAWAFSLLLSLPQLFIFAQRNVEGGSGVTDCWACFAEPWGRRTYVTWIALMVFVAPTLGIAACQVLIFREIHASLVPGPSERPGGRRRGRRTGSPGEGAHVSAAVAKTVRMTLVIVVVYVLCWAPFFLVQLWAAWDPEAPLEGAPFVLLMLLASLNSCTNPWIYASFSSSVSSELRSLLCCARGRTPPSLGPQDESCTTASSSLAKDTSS
# assayNotes: Vasopressin binding in Chinese Hamster Ovary cell membranes expressing human vasopressin V2 subtype receptors
# conditionInfo: 100 nM, CHO cell membranes, [3H]arginine vasopressin, values without parentheses
inhibition at 0.1 µM below 10% gives N; inhibition at 0.1 µM at or above it gives Y.

compound="Cc1cc(C(=O)N2Cc3ccc(C(=O)N(C)C4CCN(C)C4)n3Cc3ccccc32)ccc1-c1ccccc1C(F)(F)F (centres unmarked) [Example 194]" answerlabel=N
compound="Cc1cc(C(=O)N2Cc3ccc(C(=O)N4CCC(N5CCCCC5)CC4)n3Cc3ccccc32)ccc1-c1ccccc1C(F)(F)F [Example 122]" answerlabel=N

Inquiry: Is the recorded value of inhibition at 0.1 µM equal to or greater than 10% for this compound? Cc1cc(C(=O)N2Cc3ccc(C(=O)N4CCN(C(=O)OC(C)(C)C)CC4)n3Cc3ccccc32)ccc1-c1ccccc1C(F)(F)F [Example 6]
Reply text: Y

Inquiry: Check this compound for inhibition at 0.1 µM at or above 10%: COc1cc(C(=O)N2Cc3ccc(C(=O)N4CCC(N5CCCCC5)CC4)n3Cc3ccccc32)ccc1-c1ccccc1C [Example 116]
Reply text: Y

Inquiry: Is reported inhibition at 0.1 µM greater than or equal to 10% here: COc1cc(C(=O)N2Cc3ccc(C(=O)N(C)C4CCN(C)C4)n3Cc3ccccc32)ccc1-c1ccccc1C (centres unmarked) [Example 189]
Reply text: Y

Inquiry: Determine whether this compound has inhibition at 0.1 µM no lower than 10%: COc1cccc(-c2ccc(C(=O)N3Cc4ccc(C(=O)N5CCCN(C)CC5)n4Cc4ccccc43)cc2C)c1 [Example 64]
Reply text: Y

Inquiry: Is the recorded value of inhibition at 0.1 µM equal to or greater than 10% for this compound? COc1ccccc1-c1ccc(C(=O)N2Cc3ccc(C(=O)n4ccnc4)n3Cc3ccccc32)cc1C [Example 292]
Reply text: N

Inquiry: Answer whether inhibition at 0.1 µM of Cc1cc(C(=O)N2Cc3cccn3Cc3ccccc32)ccc1-c1ccncc1 [Example 31] is greater than or equal to 10%.
Reply text: Y

Inquiry: Assess whether reported inhibition at 0.1 µM for COc1ccccc1-c1ccc(C(=O)N2Cc3ccc(C(=O)N4CCN(CCN5CCOCC5)CC4)n3Cc3ccccc32)cc1OC [Example 214] sits at 10% or higher.
Reply text: Y

Inquiry: Hello, I need to know if COc1cc(-c2ccccc2C)c(Cl)cc1C(=O)N1Cc2ccc(C(=O)NCCCN(C)C)n2Cc2ccccc21 [Example 78] has measured inhibition at 0.1 µM not below 10%. Thanks!
Reply text: Y

Inquiry: Does the compound COc1cccc(-c2ccc(C(=O)N3Cc4ccc(C(=O)N5CCN(CCN6CCOCC6)CC5)n4Cc4ccccc43)cc2OC)c1 [Example 211] have recorded inhibition at 0.1 µM that is 10% or more?
Reply text: Y

Inquiry: Does inhibition at 0.1 µM meet or surpass 10% for C=CCN1CCN(C(=O)c2ccc3n2Cc2ccccc2N(C(=O)c2ccc(-c4cccc5ccccc45)cc2Cl)C3)CC1 [Example 229] ?
Reply text: Y

----------
# targetUnderTest: human oxytocin receptor (Homo sapiens, UniProt P30559)
# Construct: host or cells: CHO cells (pcDNA3.1 vector)
# Sequence (P30559 whole entry): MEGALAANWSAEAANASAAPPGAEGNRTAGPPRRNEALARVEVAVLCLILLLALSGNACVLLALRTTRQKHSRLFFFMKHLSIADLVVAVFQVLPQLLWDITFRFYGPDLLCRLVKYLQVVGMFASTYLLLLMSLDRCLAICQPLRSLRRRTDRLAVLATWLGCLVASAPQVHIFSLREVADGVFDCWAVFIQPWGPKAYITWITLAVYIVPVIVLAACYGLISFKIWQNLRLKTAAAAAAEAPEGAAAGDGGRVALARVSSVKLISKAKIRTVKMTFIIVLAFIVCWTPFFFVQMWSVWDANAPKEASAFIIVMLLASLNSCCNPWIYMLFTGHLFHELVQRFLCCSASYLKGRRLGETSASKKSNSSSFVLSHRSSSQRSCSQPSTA
# assayNotes: Oxytocin binding in Chinese Hamster Ovary cell membranes expressing human oxytocin receptors
# conditionInfo: 100 nM, CHO cell membranes, [3H]oxytocin, values without parentheses, read-out: OT % inhibition @ 100% nM
Exercise: state measured inhibition at 0.1 µM for each of the compounds provided.
Numbers only, in %.

moleculesmiles=COc1cc(-c2ccccc2C)c(Cl)cc1C(=O)N1Cc2ccc(C(=O)NCCCn3ccnc3)n2Cc2ccccc21 measurementtype="inhibition at 0.1 µM" obsvalue=52
moleculesmiles=COc1ccccc1-c1ccc(C(=O)N2Cc3ccc(C(=O)NCCCN(C)C)n3Cc3ccccc32)cc1C measurementtype="inhibition at 0.1 µM" obsvalue=74

# return inhibition at 0.1 µM for each item in the list
1. COc1cc(C(=O)N2Cc3ccc(C(=O)N4CCN(C(C)C)CC4)n3Cc3ccccc32)ccc1-c1ccccc1C
2. O=C(NCCN1CCCCC1)c1ccc2n1Cc1ccccc1N(C(=O)c1ccc(-c3cccc4ccccc34)cc1Cl)C2

Reply text:
1. 79
2. 20

----------
# targetUnderTest: human oxytocin receptor (Homo sapiens)
# Construct: host or cells: CHO cells (pcDNA3.1 vector)
# assayNotes: Oxytocin binding in Chinese Hamster Ovary cell membranes expressing human oxytocin receptors
# conditionInfo: 100 nM, CHO cell membranes, [3H]oxytocin, values without parentheses, read-out: OT % inhibition @ 100% nM
Assign inhibition at 0.1 µM to each entry below.
Answers are plain numbers, in %.

Example cases with answers are listed next.
compound=Cc1ccccc1-c1ccc(C(=O)N2Cc3ccc(C(=O)N4CCN(CCCN(C)C)CC4)n3Cc3ccccc32)cc1 obsvalue=18
compound=COc1ccccc1-c1ccc(C(=O)N2Cc3ccc(C(=O)N(C)CCN(C)C)n3Cc3ccccc32)cc1OC obsvalue=94
compound=C=CCN1CCN(C(=O)c2ccc3n2Cc2ccccc2N(C(=O)c2ccc(-c4ccccc4OC)c(C)c2)C3)CC1 obsvalue=84

Batch request: inhibition at 0.1 µM per item, same order as input.
1. COc1ccccc1-c1ccc(C(=O)N2Cc3ccc(C(=O)NCCC4CCCN4C)n3Cc3ccccc32)cc1 (centres unmarked)
2. COc1cccc(-c2ccc(C(=O)N3Cc4ccc(C(=O)N(C)CCN(C)C)n4Cc4ccccc43)cc2OC)c1
3. COc1cccc(-c2cc(OC)c(C(=O)N3Cc4ccc(C(=O)N5CCC(N6CCCCC6)CC5)n4Cc4ccccc43)cc2Cl)c1

Reply text:
1. 64
2. 97
3. 70

----------
# targetUnderTest: human vasopressin V1a receptor subtype (Homo sapiens, UniProt P37288)
# Construct: host or cells: CHO cells (pZeoSV vector for the Thibonnier line)
# Sequence (P37288 whole entry): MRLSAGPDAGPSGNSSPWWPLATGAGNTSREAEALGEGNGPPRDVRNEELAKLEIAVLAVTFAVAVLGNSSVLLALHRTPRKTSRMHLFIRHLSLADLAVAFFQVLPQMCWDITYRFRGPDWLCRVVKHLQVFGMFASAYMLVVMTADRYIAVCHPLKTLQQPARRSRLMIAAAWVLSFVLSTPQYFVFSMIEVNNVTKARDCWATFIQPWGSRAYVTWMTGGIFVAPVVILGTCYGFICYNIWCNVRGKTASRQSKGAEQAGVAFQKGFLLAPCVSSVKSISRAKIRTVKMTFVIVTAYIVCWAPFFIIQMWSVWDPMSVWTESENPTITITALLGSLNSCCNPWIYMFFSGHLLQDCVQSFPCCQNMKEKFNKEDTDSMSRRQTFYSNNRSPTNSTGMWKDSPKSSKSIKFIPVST
# assayNotes: Vasopressin binding in Chinese Hamster Ovary cell membranes expressing human vasopressin V1a subtype receptors
# conditionInfo: 100 nM, CHO cell membranes, [3H]Manning ligand, values without parentheses
measurementType: inhibition at 0.1 µM (%)
Give bare numbers, in %.

These solved cases illustrate the format of a correct answer.
moleculesmiles=COc1cc(C(=O)N2Cc3ccc(C(=O)N(C)CCN(C)C)n3Cc3ccccc32)ccc1-n1c(C)ccc1C unitspec=% obsvalue=11
moleculesmiles=COc1cc(C(=O)N2Cc3ccc(C(=O)N4CCCN(C)CC4)n3Cc3ccccc32)ccc1-n1c(C)ccc1C unitspec=% obsvalue=-7
moleculesmiles=COc1cccc(-c2cc(OC)c(C(=O)N3Cc4ccc(C(=O)N(C)C5CCN(C)CC5)n4Cc4ccccc43)cc2Cl)c1 unitspec=% obsvalue=23
moleculesmiles=COc1cccc(-c2cc(OC)c(C(=O)N3Cc4ccc(C(=O)N5CCC(N6CCCC6)CC5)n4Cc4ccccc43)cc2Cl)c1 unitspec=% obsvalue=-3
moleculesmiles=C=CCN1CCN(C(=O)c2ccc3n2Cc2ccccc2N(C(=O)c2ccc(-c4cccc5ccccc45)cc2Cl)C3)CC1 unitspec=% obsvalue=8
moleculesmiles=COc1ccccc1-c1ccc(C(=O)N2Cc3ccc(C(=O)N(C)C4CCN(C)CC4)n3Cc3ccccc32)cc1OC unitspec=% obsvalue=26

From here, focus on the item given below.
Inquiry: # returns recorded inhibition at 0.1 µM (system: human vasopressin V1a receptor subtype (Homo sapiens, UniProt P37288)) for COc1ccccc1-c1ccc(C(=O)N2Cc3ccc(C(=O)N(C)CCCN(C)C)n3Cc3ccccc32)cc1
Reply text: 43

----------
# targetUnderTest: human vasopressin V1a receptor subtype (Homo sapiens, UniProt P37288)
# Construct: host or cells: CHO cells (pZeoSV vector for the Thibonnier line)
# assayNotes: Vasopressin binding in Chinese Hamster Ovary cell membranes expressing human vasopressin V1a subtype receptors
# conditionInfo: 100 nM, CHO cell membranes, [3H]Manning ligand, values without parentheses
# Experimental: Vasopressin Binding in Chinese Hamster Ovary Cell Membranes Expressing Human Vasopressin V1a Subtype Receptors The trypsin is removed by aspiration and the cells dislodged by tapping. Cell Culture medium (e.g. 30 mL for 1:30 split) is immediately added and mixed well to inactivate trypsin. […] The filter paper is thoroughly dried (7–12 min. in a microwave oven) and impregnated with MeltiLex B/H melt-on scintillation wax sheets and the radioactivity counted in a betaplate scintillation counter. […]
Exercise: for every item that follows, state its recorded inhibition at 0.1 µM.

A selection of reference data follows.
compound=Cc1ccccc1-c1ccc(C(=O)N2Cc3ccc(C(=O)N4CCN(C)CC4)n3Cc3ccccc32)cc1C measurementtype="inhibition at 0.1 µM" obsvalue=40%
compound=COc1cccc(-c2ccc(C(=O)N3Cc4ccc(C(=O)N(C)CCN(C)C)n4Cc4ccccc43)cc2C)c1 measurementtype="inhibition at 0.1 µM" obsvalue=50%
compound=COc1ccccc1-c1ccc(C(=O)N2Cc3ccc(C(=O)N4CCN(C(C)C)CC4)n3Cc3ccccc32)cc1C measurementtype="inhibition at 0.1 µM" obsvalue=13%
compound=COc1ccccc1-c1ccc(C(=O)N2Cc3ccc(C(=O)N[C@@H]4CN5CCC4CC5)n3Cc3ccccc32)cc1OC measurementtype="inhibition at 0.1 µM" obsvalue=-2%
compound=COc1cccc(-c2ccc(C(=O)N3Cc4ccc(C(=O)N5CCCN(C)CC5)n4Cc4ccccc43)cc2C)c1 measurementtype="inhibition at 0.1 µM" obsvalue=13%
compound=COc1cc(C(=O)N2Cc3ccc(C(=O)N4CCN(C(C)C)CC4)n3Cc3ccccc32)ccc1-n1c(C)ccc1C measurementtype="inhibition at 0.1 µM" obsvalue=9%
compound=Cc1ccccc1-c1ccc(C(=O)N2Cc3ccc(C(=O)N(C)CCN(C)C)n3Cc3ccccc32)cc1 measurementtype="inhibition at 0.1 µM" obsvalue=90%
compound=COc1ccccc1-c1ccc(C(=O)N2Cc3ccc(C(=O)NCCCn4ccnc4)n3Cc3ccccc32)cc1OC measurementtype="inhibition at 0.1 µM" obsvalue=2%

Could you tell me inhibition at 0.1 µM for each of these compounds? They are listed below.
1. CN(C)CCN1CCN(C(=O)c2ccc3n2Cc2ccccc2N(C(=O)c2ccc(-c4cccc5ccccc45)cc2Cl)C3)CC1
2. COc1cc(-c2ccccc2C)c(Cl)cc1C(=O)N1Cc2ccc(C(=O)NCCC3CCCN3C)n2Cc2ccccc21 (stereo not drawn)
3. CN(C)CCCN1CCN(C(=O)c2ccc3n2Cc2ccccc2N(C(=O)c2ccc(-c4cccc5ccccc45)cc2Cl)C3)CC1
4. CN(C)CCCN(C)C(=O)c1ccc2n1Cc1ccccc1N(C(=O)c1ccc(-c3cccc4ccccc34)cc1Cl)C2
5. COc1cc(C(=O)N2Cc3ccc(C(=O)N(C)C4CCN(C)CC4)n3Cc3ccccc32)ccc1-c1cccc2ccccc12
6. COc1cc(C(=O)N2Cc3ccc(C(=O)NCCCN(C)C)n3Cc3ccccc32)ccc1-c1ccccc1C

Reply text:
1: -6%; 2: 8%; 3: 7%; 4: 9%; 5: 14%; 6: 44%

Inquiry: Find the recorded inhibition at 0.1 µM belonging to COc1ccccc1-c1ccc(C(=O)N2Cc3ccc(C(=O)NCCCn4ccnc4)n3Cc3ccccc32)cc1 and report it.
Reply text: 9%
